// reported viability, T/C per item
- Test system: 991263-137-R1-J2-PDC complex spheroid viability;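 also: spheroids exposed to compounds for 7 days before readout; 100% = DMSO vehicle control viability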
- measurement-notes: Anticancer human tumor 991263-137-R1-J2-PDC patient-derived colon adenocarcinoma cell line growth inhibition [POLQ]
- settings: second compound 0.0316 µM; first compound 0.0316 µM; stronger effect = lower value
// units = %; emit number, no label

As a guide, the following entries are already answered.
compound	target-entity	measured-parameter	readout-units	recorded-result
COc1cccc(OCCCN)c1-c1cc(Nc2cnc(C#N)cn2)n[nH]1 + Cc1cccc(N(C)C(=O)C2C(O)CCN2c2nc(C)cc(C(F)(F)F)c2C#N)c1	991263-137-R1-J2-PDC complex spheroid viability	viability, T/C	%	90.1
COc1ccc([C@@H](O)c2cc(-c3ncnc4cc(N5CCOCC5)ccc34)c(F)cc2Cl)nn1 + COC1C(OC(N)=O)C(O)C(Oc2ccc3c(O)c(NC(=O)c4ccc(O)c(CC=C(C)C)c4)c(=O)oc3c2C)OC1(C)C	991263-137-R1-J2-PDC complex spheroid viability	viability, T/C	%	107
CNCc1ccc(-c2[nH]c3cc(F)cc4c3c2CCNC4=O)cc1 + COC1C(OC(N)=O)C(O)C(Oc2ccc3c(O)c(NC(=O)c4ccc(O)c(CC=C(C)C)c4)c(=O)oc3c2C)OC1(C)C	991263-137-R1-J2-PDC complex spheroid viability	viability, T/C	%	85.7
CNCc1ccc(-c2[nH]c3cc(F)cc4c3c2CCNC4=O)cc1 + Nc1ccc(C#CCN(C(=O)Cc2ncc(C(F)(F)F)cc2C(F)(F)F)c2ccc(F)cc2)nn1	991263-137-R1-J2-PDC complex spheroid viability	viability, T/C	%	98.4
C=CCn1c(=O)c2cnc(Nc3ccc(N4CCN(C)CC4)cc3)nc2n1-c1cccc(C(C)(C)O)n1 + Nc1ccc(C#CCN(C(=O)Cc2ncc(C(F)(F)F)cc2C(F)(F)F)c2ccc(F)cc2)nn1	991263-137-R1-J2-PDC complex spheroid viability	viability, T/C	%	90.4

Input line: Give 991263-137-R1-J2-PDC complex spheroid viability viability, T/C for C=CCn1c(=O)c2cnc(Nc3ccc(N4CCN(C)CC4)cc3)nc2n1-c1cccc(C(C)(C)O)n1 + COC1C(OC(N)=O)C(O)C(Oc2ccc3c(O)c(NC(=O)c4ccc(O)c(CC=C(C)C)c4)c(=O)oc3c2C)OC1(C)C
Output line: 105

Input line: Entry COc1cc(C2c3cc4c(cc3C(OC3OC5COC(C)OC5C(O)C3O)C3COC(=O)C23)OCO4)cc(OC)c1O (stereo unspecified) + Cc1cccc(N(C)C(=O)C2C(O)CCN2c2nc(C)cc(C(F)(F)F)c2C#N)c1 , system 991263-137-R1-J2-PDC complex spheroid viability: what viability, T/C was measured?;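 also: spheroids exposed to compounds for 7 days before readout; 100% = DMSO vehicle control viability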
Output line: 115

Input line: Notebook entry, 991263-137-R1-J2-PDC complex spheroid viability assay: viability, T/C of CCc1cc2c(N3CCc4c(cc(Cn5ccnc5)cc4-c4cn(C)nc4C(F)(F)F)C3=O)ccnc2c(OC)n1 + Nc1ccc(C#CCN(C(=O)Cc2ncc(C(F)(F)F)cc2C(F)(F)F)c2ccc(F)cc2)nn1 = ?
Output line: 118

Input line: I'm curious: which viability, T/C was measured for O=C(c1cc(Cc2n[nH]c(=O)c3ccccc23)ccc1F)N1CCN(C(=O)C2CC2)CC1 + COC1C(OC(N)=O)C(O)C(Oc2ccc3c(O)c(NC(=O)c4ccc(O)c(CC=C(C)C)c4)c(=O)oc3c2C)OC1(C)C tested on 991263-137-R1-J2-PDC complex spheroid viability?;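 also: spheroids exposed to compounds for 7 days before readout; 100% = DMSO vehicle control viability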
Output line: 99.2

Input line: Provide the documented viability, T/C with 991263-137-R1-J2-PDC complex spheroid viability as the system for COc1cc2cc(C(=O)CCC(=O)O)sc2cc1OC + Cc1cccc(N(C)C(=O)C2C(O)CCN2c2nc(C)cc(C(F)(F)F)c2C#N)c1
Output line: 100

Input line: Form entry - test system: 991263-137-R1-J2-PDC complex spheroid viability; read-out: viability, T/C; compound: CNCc1ccc(-c2[nH]c3cc(F)cc4c3c2CCNC4=O)cc1 + Cc1cccc(N(C)C(=O)C2C(O)CCN2c2nc(C)cc(C(F)(F)F)c2C#N)c1;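 also: spheroids exposed to compounds for 7 days before readout; 100% = DMSO vehicle control viability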
Output line: 107
